Entries and their % Kill of slugs values follow.
system: Agriolimax reticulatus (slugs); test: Molluscicidal activity test; assay type: in vivo, Agriolimax reticulatus (Mull); conditions: pellet with 4% by weight; 6 days; 10°C
Parameter: % Kill of slugs

# Record smiles, Result
measured = [
    ("O=[N+]([O-])c1c(F)c(F)c(Nc2c(Cl)c(F)nc(F)c2Cl)c(F)c1F", "50%"),
    ("Fc1nc(F)c(Cl)c(Nc2c(F)c(F)c(Br)c(F)c2F)c1Cl", "100%"),
    ("O=[N+]([O-])c1ccc(Nc2c(F)c(F)nc(F)c2Cl)c(C(F)(F)F)c1", "100%"),
    ("N#Cc1cc([N+](=O)[O-])c(Nc2c(Cl)c(F)nc(F)c2Cl)c([N+](=O)[O-])c1", "100%"),
    ("O=[N+]([O-])c1cc(C(F)(F)F)ccc1Nc1c(Cl)c(F)nc(F)c1Cl", "50%"),
    ("COc1ccc(Nc2c(Cl)c(F)nc(F)c2Cl)c([N+](=O)[O-])c1", "50%"),
    ("Fc1ccc(Nc2c(Cl)c(F)nc(F)c2Cl)cc1", "100%"),
    ("O=[N+]([O-])c1cc(Cl)c(Nc2c(Cl)c(F)nc(F)c2Cl)c(Cl)c1", "100%"),
]
